Recorded values, source patent US20080113038A1.

Tested on: diaphysis and metaphysis tissues of rat femur
assay-text: Calcium level in bone tissues in a bone tissue culture system
cond: Example 2; 48 h culture; β-cryptoxanthin 10^−9 M, zinc, genistein, menaquinone-7 each 10^−6 M; mean ± SD, 5 rats
recorded-metric: Calcium level in bone tissues, diaphysis part

molecule	observed
O=c1c(-c2ccc(O)cc2)coc2cc(O)cc(O)c12 [genistein, reference compound]	211.0 ± 7.93 mg/g bone dry weight
O=S(=O)([O-])[O-].[Zn+2] [zinc, zinc sulfate]	224.3 ± 2.90 mg/g bone dry weight
CC(C)=CCC/C(C)=C/CC/C(C)=C/CC/C(C)=C/CC/C(C)=C/CC/C(C)=C/CC/C(C)=C/CC1=C(C)C(=O)c2ccccc2C1=O [menaquinone-7, reference compound]	219.8 ± 4.20 mg/g bone dry weight
CC1=C(/C=C/C(C)=C/C=C/C(C)=C/C=C/C=C(C)/C=C/C=C(C)/C=C/C2=C(C)C[C@@H](O)CC2(C)C)C(C)(C)CCC1 [β-cryptoxanthin]	221.5 ± 3.45 mg/g bone dry weight
